// data source = PubChem BioAssay (NCATS)

- assay_method_text: Quantitative High-Throughput drug screen in 47 multiple myeloma cell lines against the NCATS MIPE library collection: FR4_PLB cell viability assay (AID 1918924;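 further: 100% = DMSO-treated cells and 0% = wells with media only; nearly all actives have a fitted effect of over 35% in size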)
- particulars: FR4_PLB myeloma cells viability, CellTiter-Glo ATP, 48 h; series mostly up to 45.8 µM
Results filed as inconclusive are left out. The source made the active and inactive calls. The call rests on the fitted dose curve; in most records, active means well fitted cell-killing curve with a large enough effect; inconclusive means small, poorly fitted or top-dose-only effect, or effect the other way; inactive means no such curve, though single readings can be large or run the other way.
Permitted responses: t (active), f (inactive)

For this molecule, state the assay outcome: CCCn1c(=O)c2[nH]c(C34CC5CC3C[C@@H](C5)C4)nc2n(CCC)c1=O
f

----------
- Tested on: OV90
- assay_method_text: Primary qHTS to identify gynecologic anti-cancer compounds using libraries of approved drugs and bioactive compounds (AID 1345084); further: nearly all actives have a fitted effect of over 55% in size
- particulars: Gynecologic cancer cell panel viability, ATPlite luminescence, 48 h; series mostly up to 57.5 µM
Results filed as inconclusive are left out. Calls of active or inactive are those of the source. Calls follow the shape of the dose curve; as a rule, active = well fitted cell-killing curve with a large enough effect; inconclusive = small, poorly fitted or top-dose-only effect, or effect the other way; inactive = flat fitted curve, though single readings scatter.
Result category, one only: label 1 (active), label 0 (inactive)

For orientation, consider the following solved cases.
{"columns": ["compound", "category"],
 "data": [
  ["CCCC(CCC)C(=O)O", "label 0"],
  ["Cc1cnc(Nc2ccc(OCCN3CCCC3)cc2)nc1Nc1cccc(S(=O)(=O)NC(C)(C)C)c1", "label 1"],
  ["CCN(CC)CCCC(C)Nc1ccnc2cc(Cl)ccc12 (stereo unspecified)", "label 1"]
]}

Name the outcome recorded for COc1ccccc1[C@H](c1cccc2ccccc12)[C@@](C)(C#N)C(=O)N1CCC(c2cccc(C(F)(F)F)c2)CC1 in the assay.
label 0

What did the test return for COc1ccc(CCN2CCN(CCCc3ccccc3)CC2)cc1OC ?
label 0

Dear all, I need the recorded test outcome for CCOC(=O)C1=C[C@]2(CC)CCCN3CCc4c(n1c1ccccc41)[C@@H]32 , thank you.
label 0

Kindly provide the recorded test outcome for the following compound: CC(C)OC(=O)C1=CN(C(=O)c2ccc(F)c(F)c2)CC(C)(C)c2c1[nH]c1ccccc21
label 0

----------
- experimental_system: D(1A) dopamine receptor (Homo sapiens) (UniProt P21728)
- Sequence (P21728 whole entry, looked up): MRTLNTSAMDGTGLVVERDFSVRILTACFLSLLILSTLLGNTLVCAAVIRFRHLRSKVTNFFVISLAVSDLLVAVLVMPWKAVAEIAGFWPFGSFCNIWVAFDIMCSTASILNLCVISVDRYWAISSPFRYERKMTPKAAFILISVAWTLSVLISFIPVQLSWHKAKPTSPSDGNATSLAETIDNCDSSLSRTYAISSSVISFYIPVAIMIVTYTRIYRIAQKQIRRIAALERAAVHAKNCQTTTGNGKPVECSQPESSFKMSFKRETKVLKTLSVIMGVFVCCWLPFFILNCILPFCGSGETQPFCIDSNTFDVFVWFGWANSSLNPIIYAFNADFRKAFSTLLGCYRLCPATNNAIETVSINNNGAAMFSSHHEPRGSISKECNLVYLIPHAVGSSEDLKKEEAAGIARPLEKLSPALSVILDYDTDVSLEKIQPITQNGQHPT
- assay_method_text: HTS Assay for Allosteric Agonists of the Human D1 Dopamine Receptor: Primary Screen for Antagonists (AID 488983);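 further: calcium flux response to an EC80 dopamine challenge measured with no-wash dye; nearly all actives have a fitted effect of over 65% in size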
- particulars: D1 receptor cell assay, antagonist mode, qHTS titration; series mostly up to 41.8 µM
Records with an inconclusive call do not appear. Activity calls are given as the source filed them. Calls come from the whole dose curve; as a rule, active = well fitted inhibition curve with a large enough effect; inconclusive = small, poorly fitted or top-dose-only effect, or effect the other way; inactive = flat fitted curve, though single readings scatter.
Outcomes you can answer with include only these: active, inactive

Look up the recorded call for Nc1ncnc2nc(-c3ccc(N4CCOCC4)nc3)cc(-c3cccc(Br)c3)c12 in this test.
inactive

Write down the call the test reported for this compound. Item: O=c1n(CCCN2CCN(c3cccc(Cl)c3)CC2)nc2ccccn12
active

Kindly provide the recorded test outcome for the following compound: Nc1nc2c(ncn2COCCO)c(=O)[nH]1
inactive

Could you check what this test reported for O=NN(CCCl)C(=O)NCCCl ?
inactive

Status in this test for CC(C)C[C@H](NC(=O)[C@@H](O)[C@H](N)Cc1ccccc1)C(=O)O ?
inactive

Any idea what this test logged for NC(=O)c1cnccn1 ?
inactive

----------
- experimental_system: Luciferin 4-monooxygenase (Photinus pyralis)
- assay_method_text: Biochemical firefly luciferase enzyme assay for NPC (AID 624030);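 further: purified P. pyralis luciferase at 10 nM with luciferin and ATP substrate; 0% = DMSO and -100% = full luciferase inhibition by PTC124 control; nearly all actives have a fitted effect of over 70% in size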
- particulars: purified P. pyralis luciferase, luminescence, 5 min; series mostly up to 58.6 µM
Records with an inconclusive call do not appear. Active and inactive are the calls of the source. Calls come from the whole dose curve; as a rule, active = well fitted inhibition curve with a large enough effect; inconclusive = small, poorly fitted or top-dose-only effect; inactive = flat fitted curve, though single readings scatter.
measured_metric: outcome

Worked cases, answers included:
{"columns": ["compound", "outcome"],
 "data": [
  ["C#Cc1cccc(Nc2ncnc3cc(OCCOC)c(OCCOC)cc23)c1", "inactive"],
  ["CCCC(CCC)C(=O)O", "inactive"],
  ["O=c1n(CCCN2CCN(c3cccc(Cl)c3)CC2)nc2ccccn12", "inactive"],
  ["CN1CCN(CCCN2c3ccccc3Sc3ccc(C(F)(F)F)cc32)CC1", "inactive"]
]}

Would you mind giving outcome for every compound in the list below?
1. Cc1[nH]c(=O)c(C#N)cc1-c1ccncc1
2. CNC[C@H](O)c1cccc(O)c1
3. Cc1cn[nH]c1
4. CCOC(=O)C1=C[C@]2(CC)CCCN3CCc4c(n1c1ccccc41)[C@@H]32

1. inactive
2. inactive
3. inactive
4. inactive

// for each compound in input: emit outcome
1. OC(CN1CCC(Cc2ccc(F)cc2)CC1)c1ccc(Cl)cc1 (stereo not given)
2. Cc1cnc(NC(=O)C2=C(O)c3ccccc3S(=O)(=O)N2C)s1
3. N[C@@H]1CONC1=O
4. NC(N)=NC(=O)c1nc(Cl)c(N)nc1N
5. Cn1cnc2c(F)c(Nc3ccc(Br)cc3Cl)c(C(=O)NOCCO)cc21
6. CC(C)C[C@H](NC(=O)[C@@H](O)[C@H](N)Cc1ccccc1)C(=O)O
7. O=C1CCC(N2C(=O)c3ccccc3C2=O)C(=O)N1 (stereo not given)

inactive
inactive
inactive
inactive
inactive
inactive
inactive

----------
- Tested on: CRL-7250
- assay_method_text: Cytotoxic Profiling of Annotated Libraries Using Quantitative High-Throughput Screening (AID 1296008); further: on the % scale 0 is the no-effect control and ±100 the full control effect; nearly all actives have a fitted effect of over 60% in size
- particulars: Five cell lines viability, CellTiter-Glo ATP luminescence, 48-72 h; hits give low values
- Procedure: Cell-based phenotypic screening is a commonly used approach to discover biological pathways, novel drug targets, chemical probes and high-quality hit-to-lead molecules. […] A pintool (Kalypsys) was used to transfer 23 nL of compound solution to the 1536-well assay plates. […] Plates were left at room temperature for 10 min before imaging the ATP-coupled luminescence using a ViewLux microplate imager (PerkinElmer, Waltham, MA).
Results filed as inconclusive are left out.
So I've got a bunch of compounds here, and I need their max response values.
One number for each entry, in %.

Check out these entries, answers already filled in.
{"columns": ["compound", "unit_tag", "max response"],
 "data": [
  ["Nc1ncnc2nc(-c3ccc(N4CCOCC4)nc3)cc(-c3cccc(Br)c3)c12", "%", 0.286],
  ["CN[C@@H](C)C(=O)N[C@H]1CCCC[C@H]2CC[C@@H](C(=O)N[C@@H](c3ccccc3)c3cn(CCCCc4ccc(CCCCn5cc([C@@H](NC(=O)[C@@H]6CC[C@@H]7CCCC[C@H](NC(=O)[C@H](C)NC)C(=O)N76)c6ccccc6)nn5)cc4)nn3)N2C1=O", "%", -4.97],
  ["CCOC(=O)C1=C[C@]2(CC)CCCN3CCc4c(n1c1ccccc41)[C@@H]32", "%", 1.21],
  ["COc1nc(-c2ccc3c(c2)OCO3)n(-c2ccc(NC(=O)CSc3ccccc3)cc2)n1", "%", -34],
  ["O=C(O)[C@@H](c1ccc(OCc2ccc3ccccc3n2)cc1)C1CCCC1", "%", -8.88]
]}

Please go through the list and note max response for each compound.
1. O=c1[nH]c(-c2ccc(C(F)(F)F)cc2)nc2c1CSCC2
2. O=c1n(CCCN2CCN(c3cccc(Cl)c3)CC2)nc2ccccn12
3. O=C(Nc1ccc(F)c(C(F)(F)F)c1)Nc1nnc(-c2ccncc2)s1
4. O=C(O)CCc1ccc(NCc2cccc(Oc3ccccc3)c2)cc1

-16.3
-10.4
2.14
4.81

For each of the items listed, what is its max response?
1. C[C@@H]1CN(Cc2ccc(F)cc2)[C@@H](C)CN1C(=O)c1cc2c(C(=O)C(=O)N(C)C)cn(C)c2cc1Cl
2. Cc1ccccc1C(C(=O)NC1CCCC1)N(C(=O)Cn1cnc2ccccc21)c1cccc(F)c1 (stereo unspecified)
3. O=NN(CCCl)C(=O)NCCCl
4. CCc1cc(Nc2nccc(-c3c(-c4ccc(OC)c(C(=O)Nc5c(F)cccc5F)c4)nc4ccccn34)n2)c(OC)cc1N1CCC(N2CCN(S(C)(=O)=O)CC2)CC1
5. CCCS(=O)(=O)Nc1ccc(F)c(C(=O)c2c[nH]c3ncc(Cl)cc23)c1F
6. O=C1CCC(N2C(=O)c3ccccc3C2=O)C(=O)N1 (stereo unspecified)
7. Nc1cccc(S(=O)(=O)N2CCCN(S(=O)(=O)c3ccc4c(c3)OCCO4)CC2)c1

1: 4.08; 2: 1.73; 3: -1.64; 4: -19.7; 5: -1.21; 6: 1.53; 7: 0.264

----------
- System: CP265
- assay_method_text: qHTS profiling for inhibitors of Plasmodium falciparum proliferation (AID 504749);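 further: 0% = DMSO vehicle and full inhibition = artemisinin control; nearly all actives have a fitted effect of over 60% in size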
- particulars: P. falciparum in erythrocytes, SYBR Green DNA, 72 h; series mostly up to 28.7 µM
Records with an inconclusive call do not appear. Calls of active or inactive are those of the source. The call rests on the fitted dose curve; in most records, active means well fitted inhibition curve with a large enough effect; inconclusive means small, poorly fitted or top-dose-only effect; inactive means flat fitted curve, though single readings scatter.
Respond using exactly one of the listed classes: active, inactive

Past entries and their recorded results:
{"columns": ["molecule", "experimental_system", "category"],
 "data": [
  ["CCCCNc1cc(C(=O)O)cc(S(N)(=O)=O)c1Oc1ccccc1", "CP265", "inactive"],
  ["Cc1[nH]c(=O)c(C#N)cc1-c1ccc2nccn2c1", "CP265", "inactive"],
  ["COc1ccc2nc(S(=O)Cc3ncc(C)c(OC)c3C)[nH]c2c1 (stereo not drawn)", "CP265", "inactive"],
  ["O=C1CCC(N2C(=O)c3ccccc3C2=O)C(=O)N1 (stereo not drawn)", "CP265", "inactive"],
  ["NCCCC(N)(C(=O)O)C(F)F (stereo not drawn)", "CP265", "inactive"]
]}

How was NC(=O)c1cnccn1 classified in this test?
inactive

Tell me the recorded outcome of this test for CC(C)NCC(O)COc1ccc(COCCOC(C)C)cc1 (stereo not drawn) .
inactive
